Molecular target: human synovial fluid PLA2 (Homo sapiens, UniProt P14555)
Construct: Purified human synovial fluid; from tissue; host or cells: human synovial fluid
Sequence (P14555 21-144): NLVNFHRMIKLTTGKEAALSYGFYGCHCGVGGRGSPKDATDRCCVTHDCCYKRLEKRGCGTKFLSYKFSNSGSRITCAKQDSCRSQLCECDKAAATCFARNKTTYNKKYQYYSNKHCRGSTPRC
Experiment: in vitro isolated phospholipase A2 assay, human synovial fluid PLA2
Assay type: biochemical
Details: at 10 μM; + values given without explanation; read-out: % Inhibition HSF (human synovial fluid)
Procedure: The compounds of the invention are tested in an in vitro isolated phospholipase A2 assay to determine the ability of the test compounds to inhibit the release of arachidonic acid from an arachidonic acid-containing substrate by the action of phospholipase A2 enzyme from human and non-human sources. […] The sample is loaded onto the columns and slowly drawn through them. […] The arachidonic acid is transferred to scintillation vials and quantitated by β-counting analysis. […]
assayReadout: inhibition at 10 µM
Respond with a number, then the unit of measure.

Prompt line: Please report inhibition at 10 µM for the following compound: CCCCCCCC[C@@H]1C[C@@H]1CCCCCCCC(=O)C1=C(O)COC1=O (relative stereo) [Example 19]
Response line: 88%

Prompt line: Provide measured inhibition at 10 µM value, entry: COc1ccc(OC)c(/C=C/C(=O)C2=C(O)COC2=O)c1 [Example 13]
Response line: 34%

Prompt line: Identify inhibition at 10 µM associated with the compound CCCCCC/C=C\CCCCCCCC(=O)C1=C(O)COC1=O [Example 26]
Response line: 1.7%

Prompt line: Answer with the recorded inhibition at 10 µM of CCCCCCCC/C=C\CCCCCCCCNC(=O)OC(CCC(=O)C1=C(O)COC1=O)COC/C=C(\C)CCC=C(C)C (stereo not drawn) [Example 40] only.
Response line: 91%

Prompt line: Report measured inhibition at 10 µM; entry is CCCCCCCCCCCCCCCCCC(=O)C1=C(O)COC1=O [Example 28]
Response line: 12.6%

Prompt line: Given the compound CCCCC[C@@H]1C[C@@H]1CC(=O)C1=C(O)COC1=O (relative stereo) [Example 53] , write its reported inhibition at 10 µM.
Response line: 0.1%

Prompt line: Identify measured inhibition at 10 µM corresponding to O=C(/C=C/c1cccc([N+](=O)[O-])c1)C1=C(O)COC1=O [Example 12]
Response line: 82%

Prompt line: State its inhibition at 10 µM for this compound: CCCCCCCCCC(=O)C1=C(O)COC1=O [Example 1, 4-Hydroxy-3-(1-oxodecyl)-2(5H)-furanone]
Response line: 35.1%

Prompt line: Identify measured inhibition at 10 µM associated with O=C(/C=C/c1cccc(C(F)(F)F)c1)C1=C(O)COC1=O [Example 10]
Response line: 34%

Prompt line: Quickly give me recorded inhibition at 10 µM for CCCCCCCC/C=C\CCCCCCCCNC(=O)OC(CCC(=O)O)COC/C=C(\C)CCC=C(C)C (stereo not drawn) [Example 40A]
Response line: 74.2%

Prompt line: Specify inhibition at 10 µM for CCCCCCCC/C=C/CCCCCCCC(=O)C1=C(O)COC1=O [Example 36] and stop.
Response line: 10.3%

Prompt line: Name the recorded inhibition at 10 µM of the compound listed here: CCCCCCCCCCC/C=C\CCCCC(=O)C1=C(O)COC1=O [Example 18]
Response line: 9%

Prompt line: Look up and report measured inhibition at 10 µM for this entry: O=C(CCCCCCCCCc1ccc(Cl)cc1)C1=C(O)COC1=O [Example 41]
Response line: 13%

Prompt line: Quick one: give measured inhibition at 10 µM for CCCC/C=C\CCCCCCCC(=O)C1=C(O)CSC1=O [Example 48]
Response line: 50.9%

Prompt line: Read the entry CCCCCCCCCCCCNC(=O)OCC(CCC(=O)O)OC(=O)NCCCCCCCCCCCC (stereo not drawn) [Example 31A] and write its reported inhibition at 10 µM.
Response line: 43.2%

Prompt line: Recall and state the measured inhibition at 10 µM for CCCCC/C=C\C/C=C\C/C=C\CCCCC(=O)C1=C(O)CSC1=O [Example 50] .
Response line: 55.9%

Prompt line: Look up and state reported inhibition at 10 µM for CCCCC/C=C\C/C=C\C/C=C\CCCCC(=O)C1=C(O)COC1=O [Example 20]
Response line: 81%

Prompt line: For the compound CCCCCCCC[C@@H]1C[C@@H]1CCCCCCCC(=O)C1=C(O)CSC1=O (relative stereo) [Example 52] , give its measured inhibition at 10 µM value.
Response line: 18.6%
